Parameter 'readout' = IC50; parameter 'system' = plasmin (Homo sapiens).
Sequence (P00747 581-810 limits assumed): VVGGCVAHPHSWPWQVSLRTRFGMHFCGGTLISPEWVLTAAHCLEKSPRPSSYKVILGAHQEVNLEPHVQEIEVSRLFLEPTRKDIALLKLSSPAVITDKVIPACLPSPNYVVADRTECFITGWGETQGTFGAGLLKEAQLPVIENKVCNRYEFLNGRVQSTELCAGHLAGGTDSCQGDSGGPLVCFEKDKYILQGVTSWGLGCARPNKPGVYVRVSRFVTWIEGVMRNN
Sequence (P00747 97-580 partner limits assumed): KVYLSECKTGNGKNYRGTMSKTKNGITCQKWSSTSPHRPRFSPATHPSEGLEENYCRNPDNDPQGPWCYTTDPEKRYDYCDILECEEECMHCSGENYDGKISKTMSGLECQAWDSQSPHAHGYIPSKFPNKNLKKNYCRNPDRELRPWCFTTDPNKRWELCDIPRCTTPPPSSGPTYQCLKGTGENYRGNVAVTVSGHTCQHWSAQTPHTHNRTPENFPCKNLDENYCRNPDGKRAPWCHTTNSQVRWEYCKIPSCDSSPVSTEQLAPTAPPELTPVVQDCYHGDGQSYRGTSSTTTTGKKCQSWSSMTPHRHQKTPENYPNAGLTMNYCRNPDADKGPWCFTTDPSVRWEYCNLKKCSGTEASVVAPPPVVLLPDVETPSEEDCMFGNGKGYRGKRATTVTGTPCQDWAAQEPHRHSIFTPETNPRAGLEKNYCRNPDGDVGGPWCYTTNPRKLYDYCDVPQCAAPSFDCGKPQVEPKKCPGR
Peptide text beside a SMILES is read from it. * marks the point of attachment. Hydrocinnamoyl = O=C(CCc1ccccc1)*; Tos = Cc1ccc(S(=O)(=O)*)cc1
Numbers only, in nM.

N=C(N)NCCC[C@@H](C=O)NC(=O)[C@@H]1CCCN1C(=O)[C@H](CC(=O)O)NC(=O)CCC1CCCCC1; 250
COC(=O)C[C@H](NS(=O)(=O)c1ccc2ccccc2c1)C(=O)N1CCC[C@H]1C(=O)N[C@H](C=O)CCCNC(=N)N; 106
CC(C)CCC(=O)N[C@@H](CC(=O)O)C(=O)N1CCC[C@H]1C(=O)N[C@H](C=O)CCCNC(=N)N; 396
N=C(N)NCCC[C@@H](C=O)NC(=O)[C@@H]1CCCN1C(=O)[C@H](CC(=O)O)NC(=O)CCc1ccccc1 [HCA-Asp-Pro-Arg-al] (Hydrocinnamoyl-Asp-Pro-Arg-aldehyde); 481
CCCC(CCC)C(=O)N[C@@H](CC(=O)OC)C(=O)N1CCC[C@H]1C(=O)N[C@H](C=O)CCCNC(=N)N; 261

Hi team, please reply with IC50 for each item in this list.
1. CCCCS(=O)(=O)N[C@@H](CC(=O)OC)C(=O)N1CCC[C@H]1C(=O)N[C@H](C=O)CCCNC(=N)N
2. COC(=O)C[C@H](NS(=O)(=O)c1ccc(C)cc1)C(=O)N1CCC[C@H]1C(=O)N[C@H](C=O)CCCNC(=N)N [(4-MePh)SO2 -Asp(OCH3)-Pro-Arg-al] (Tos-Asp(OMe)-Pro-Arg-aldehyde)
3. N=C(N)NCCC[C@@H](C=O)NC(=O)[C@@H]1CCCN1C(=O)[C@H](CC(=O)O)NC(=O)CC1CCCCC1

[250, 111, 75]

Please look up its IC50: CCCC(CCC)C(=O)N[C@@H](CC(=O)O)C(=O)N1CCC[C@H]1C(=O)N[C@H](C=O)CCCNC(=N)N
254
